# Experiment: ATG_FoxO_CIS: Attagene CIS-FACTORIAL HepG2 Assay for human Forkhead box O (FoxO) (AID 2282943)
# Run Conditions: HepG2 Attagene cis-reporter, FoxO element, mRNA; actives raise or lower the signal
Calls of active or inactive are those of the source. How the source made its calls: active means hit-call score of the fitted dose curve at least 0.9, where 1 is the maximum; inactive means score below 0.9.
Reported Property: outcome

Record CNC(=O)Oc1ccc2c(c1)[C@]1(C)CCN(C)[C@@H]1N2C , field outcome: inactive

Record CCCCCCCCCCCCCCCC(=O)OC[C@H](O)[C@H]1OC(=O)C(O)=C1O , field outcome: inactive

Record CCN(CC)c1ccc(C(=C2C=CC(=[N+](CC)CC)C=C2)c2ccc(S(=O)(=O)O)cc2S(=O)(=O)[O-])cc1 , field outcome: inactive
